Below are log10(IC50) values measured for UniProtKB P06276.
Sequence (P06276 whole entry): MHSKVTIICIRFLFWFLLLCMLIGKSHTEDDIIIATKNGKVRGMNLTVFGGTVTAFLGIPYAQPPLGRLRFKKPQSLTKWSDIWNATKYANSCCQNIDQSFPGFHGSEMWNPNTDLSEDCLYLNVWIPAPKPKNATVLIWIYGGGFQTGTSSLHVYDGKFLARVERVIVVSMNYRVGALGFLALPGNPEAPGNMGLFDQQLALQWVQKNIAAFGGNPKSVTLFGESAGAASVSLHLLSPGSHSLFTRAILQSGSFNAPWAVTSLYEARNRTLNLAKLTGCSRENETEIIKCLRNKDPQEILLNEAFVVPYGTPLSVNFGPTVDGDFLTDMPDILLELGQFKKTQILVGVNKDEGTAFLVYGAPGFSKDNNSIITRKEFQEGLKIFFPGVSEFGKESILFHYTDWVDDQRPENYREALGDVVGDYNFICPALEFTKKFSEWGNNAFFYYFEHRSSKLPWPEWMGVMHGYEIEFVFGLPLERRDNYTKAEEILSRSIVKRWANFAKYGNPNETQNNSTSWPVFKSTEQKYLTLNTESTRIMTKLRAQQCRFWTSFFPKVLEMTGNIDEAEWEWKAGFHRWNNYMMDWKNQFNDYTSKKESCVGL
Hello, just confirming the data are log10 of IC50 with units of µM.

COc1ccc(Cn2cc(C(=O)NCCCCCCCNc3c4c(nc5ccc(OC)cc35)CCCC4)c(=O)c3ccccc32)cc1 | 1.69
COc1ccc(Cn2cc(C(=O)NCCNc3c4c(nc5cc(Cl)ccc35)CCCC4)c(=O)c3ccccc32)cc1 | -1.08
COc1ccc(Cn2cc(C(=O)NCCCCCNc3c4c(nc5cc(Cl)ccc35)CCCC4)c(=O)c3ccccc32)cc1 | 0.89
COc1ccc(Cn2cc(C(=O)NCCCCNc3c4c(nc5cc(Cl)ccc35)CCCC4)c(=O)c3ccccc32)cc1 | 0.49
COc1ccc(Cn2cc(C(=O)NCCCNc3c4c(nc5ccc(OC)cc35)CCCC4)c(=O)c3ccccc32)cc1 | 0.01
COc1ccc(Cn2cc(C(=O)NCCCCCCCNc3c4c(nc5ccccc35)CCCC4)c(=O)c3ccccc32)cc1 | 0.08

Hey, can you go through the list below and give me log10(IC50) for every item?
1. COc1ccc(Cn2cc(C(=O)NCCCNc3c4c(nc5cc(Cl)ccc35)CCCC4)c(=O)c3ccccc32)cc1
2. COc1ccc(Cn2cc(C(=O)NCCCCCNc3c4c(nc5ccc(OC)cc35)CCCC4)c(=O)c3ccccc32)cc1

Ans.
0.57
0.79

Ref: ChEMBL document CHEMBL4196084
